# Lookup of reported inhibition at 0.111 µM keyed by entry
TESTED_SYSTEM: recombinant human SAE enzyme (Homo sapiens)
Sequence (Q9UBT2 1-640): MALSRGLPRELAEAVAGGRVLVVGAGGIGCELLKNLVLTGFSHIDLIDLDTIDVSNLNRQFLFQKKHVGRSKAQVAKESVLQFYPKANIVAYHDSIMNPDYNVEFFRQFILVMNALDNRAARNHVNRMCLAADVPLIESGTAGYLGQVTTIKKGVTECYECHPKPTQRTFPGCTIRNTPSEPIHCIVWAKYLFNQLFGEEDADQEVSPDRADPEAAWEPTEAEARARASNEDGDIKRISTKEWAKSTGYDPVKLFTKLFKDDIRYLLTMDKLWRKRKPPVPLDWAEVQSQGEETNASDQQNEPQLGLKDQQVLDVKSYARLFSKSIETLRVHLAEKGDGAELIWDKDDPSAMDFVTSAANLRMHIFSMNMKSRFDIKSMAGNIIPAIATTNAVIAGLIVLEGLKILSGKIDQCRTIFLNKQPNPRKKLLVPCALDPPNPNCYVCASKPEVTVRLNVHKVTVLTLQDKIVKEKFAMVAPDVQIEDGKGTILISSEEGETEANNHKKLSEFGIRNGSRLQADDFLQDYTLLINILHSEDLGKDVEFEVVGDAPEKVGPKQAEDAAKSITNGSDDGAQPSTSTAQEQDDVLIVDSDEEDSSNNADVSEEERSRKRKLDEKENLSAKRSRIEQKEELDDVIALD
Sequence (Q9UBE0 1-346 partner): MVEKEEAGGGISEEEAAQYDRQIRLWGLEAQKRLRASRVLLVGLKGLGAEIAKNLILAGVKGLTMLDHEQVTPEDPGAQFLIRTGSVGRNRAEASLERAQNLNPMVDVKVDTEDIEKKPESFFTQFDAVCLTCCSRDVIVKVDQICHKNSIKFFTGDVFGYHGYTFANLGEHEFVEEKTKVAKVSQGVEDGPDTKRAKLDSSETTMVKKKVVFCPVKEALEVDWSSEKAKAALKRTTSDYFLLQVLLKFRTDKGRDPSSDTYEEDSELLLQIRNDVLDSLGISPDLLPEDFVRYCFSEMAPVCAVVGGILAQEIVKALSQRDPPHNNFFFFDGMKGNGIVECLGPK
PROCEDURE_TEXT: SAE HTRF Enzyme Assay
Assay type: biochemical
SETUP_CONDITIONS: compound concentration 0.111 μM; read-out: Percent Inhibition
Write it as a number; the unit % goes unstated.

NS(=O)(=O)OC[C@H]1C[C@@H](Nc2ncncc2C(=O)c2ccn(Cc3cccnc3)n2)[C@H](O)[C@@H]1O [Compound I-247] :: 90
C#Cc1cccc(Cn2ccc(C(=O)c3cncnc3N[C@@H]3C[C@H](COS(N)(=O)=O)[C@@H](O)C3)n2)c1 [Compound I-85] :: 98
NS(=O)(=O)OC[C@H]1C[C@@H](Nc2ncncc2C(=O)c2ccn(Cc3cncc(Br)c3)n2)C[C@@H]1O [Compound I-29] :: 94
NS(=O)(=O)OC[C@H]1C[C@@H](Nc2ncncc2C(=O)c2ccn(Cc3ccc(Cl)c(Br)c3)c2)C[C@@H]1O [Compound I-43] :: 98
CC(c1ccc(C(F)(F)F)o1)n1ccc(C(=O)c2cncnc2N[C@@H]2C[C@H](COS(N)(=O)=O)[C@@H](O)[C@@H]2F)c1 (single isomer, unassigned) [Compound I-304] :: 91

Problem: Need inhibition at 0.111 µM, item NS(=O)(=O)OC[C@H]1C[C@@H](Nc2ncncc2C(=O)c2ccn(Cc3ccc(F)c(Br)c3)n2)C[C@@H]1O [Compound I-72]
Solution: 100

Problem: Need inhibition at 0.111 µM, item NS(=O)(=O)OC[C@H]1C[C@@H](Nc2ncncc2C(=O)c2ccn(Cc3sc4ccccc4c3Cl)c2)[C@@H](F)[C@@H]1O [Compound I-49]
Solution: 93
